target: ADP-glucose pyrophosphorylase (AGPase) variant MP-TI/SH2, maize/potato mosaic small subunit MP with the TI mutation (threonine to isoleucine at position …); assay: Kinetic and allosteric characterization of purified recombinant AGPase, forward direction (MP-TI/SH2); format: biochemical, maize (Zea mays) / potato tuber; conditions: 1 mM ATP, 2 mM G-1-P, 2.5 mM 3-PGA, mean (95% confidence interval), read-out: Ki Pi
pKi: −log10 of the molar value.
Endpoint: pKi

- O=P(O)(O)O [Pi, inorganic phosphate]: 2.23

---

biological target: maize endosperm ADP-glucose pyrophosphorylase (AGPase) variant BT2-TI/SH2, small subunit BT2 with Thr462 to Ile (TI, SEQ ID NO:2) complexed with wild type SH2 (Zea mays, UniProt P55241+Q947C0, T462I); assay: Kinetic and allosteric characterization of purified recombinant AGPase, forward direction (BT2-TI/SH2); conditions: BT2-TI/SH2; 1 mM ATP, 2 mM G-1-P, 2.5 mM 3-PGA; mean (95% confidence interval); read-out: Ki Pi
Sequence (Q947C0 1-475 T462I): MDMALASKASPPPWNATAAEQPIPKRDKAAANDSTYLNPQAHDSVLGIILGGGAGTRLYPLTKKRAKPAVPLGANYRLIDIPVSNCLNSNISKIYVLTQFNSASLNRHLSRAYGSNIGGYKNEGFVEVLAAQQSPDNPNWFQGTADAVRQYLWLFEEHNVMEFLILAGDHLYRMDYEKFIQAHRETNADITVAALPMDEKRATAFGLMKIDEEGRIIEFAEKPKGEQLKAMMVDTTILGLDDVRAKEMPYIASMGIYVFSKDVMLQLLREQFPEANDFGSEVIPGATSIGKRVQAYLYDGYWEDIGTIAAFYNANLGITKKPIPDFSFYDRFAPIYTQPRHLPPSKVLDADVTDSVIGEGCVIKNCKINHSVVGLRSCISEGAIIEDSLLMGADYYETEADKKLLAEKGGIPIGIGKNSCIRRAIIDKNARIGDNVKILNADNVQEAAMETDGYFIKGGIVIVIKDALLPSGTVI
Sequence (P55241 46-516): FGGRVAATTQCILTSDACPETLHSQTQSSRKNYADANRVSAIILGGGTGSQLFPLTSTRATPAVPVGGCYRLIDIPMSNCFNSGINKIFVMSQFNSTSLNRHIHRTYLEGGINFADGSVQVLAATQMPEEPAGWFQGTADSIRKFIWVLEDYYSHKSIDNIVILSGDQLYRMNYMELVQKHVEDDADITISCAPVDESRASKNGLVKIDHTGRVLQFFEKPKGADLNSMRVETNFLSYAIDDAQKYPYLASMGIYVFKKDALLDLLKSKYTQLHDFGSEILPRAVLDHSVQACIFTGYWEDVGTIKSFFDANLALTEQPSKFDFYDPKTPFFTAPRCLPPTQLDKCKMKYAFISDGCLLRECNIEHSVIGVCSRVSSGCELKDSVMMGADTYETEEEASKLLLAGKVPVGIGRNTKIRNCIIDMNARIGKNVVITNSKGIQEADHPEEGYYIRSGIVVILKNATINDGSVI
pKi: −log10 of the molar value.
Endpoint: pKi

• O=P(O)(O)O [Pi, inorganic phosphate] = 2.39
